Target: dopamine D2 receptor (D2R) (Homo sapiens, UniProt P14416)
Sequence (P14416 whole entry): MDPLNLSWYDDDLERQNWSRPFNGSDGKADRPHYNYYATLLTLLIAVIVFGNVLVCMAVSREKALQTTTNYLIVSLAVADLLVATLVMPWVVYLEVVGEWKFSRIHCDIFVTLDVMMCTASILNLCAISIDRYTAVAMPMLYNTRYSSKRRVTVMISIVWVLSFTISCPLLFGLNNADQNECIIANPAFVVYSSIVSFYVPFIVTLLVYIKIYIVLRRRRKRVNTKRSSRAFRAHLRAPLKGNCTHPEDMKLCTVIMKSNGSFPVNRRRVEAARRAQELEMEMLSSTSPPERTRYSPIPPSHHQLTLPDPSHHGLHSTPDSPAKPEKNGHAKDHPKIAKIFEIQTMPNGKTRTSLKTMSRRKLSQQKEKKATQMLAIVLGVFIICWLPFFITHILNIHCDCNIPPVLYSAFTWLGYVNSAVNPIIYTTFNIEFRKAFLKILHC
Assay: 3H-Spiperone radioligand binding, CHO-D2R cell membranes
Settings: only one binding site
Method: Experiment of Binding a Target Compound to Radioligands of Dopamine D3 and D2 Receptor (D2R) Experimental steps: the compounds were weighed separately, when cells reached fusion degree of 90%, the cells were digested, centrifuged at 4° C. under 2000 rpm for 5 min. […] Protein concentration was measured by Coomassie brilliant blue G-250 method. […]
readout type: Ki

## Input Please tell me: Ki of Cc1ccc(Cl)cc1N1CCN(CCCCNC(=O)c2ccc3oc(=O)[nH]c3c2)CC1 [Compound 1] , system dopamine D2 receptor (D2R) (Homo sapiens, UniProt P14416)?
## Output 134 nM
